- assay.notes: Orientative acute oral toxicity (LD50) in rats
- cond: rat, in vivo, 50% survive 10 days after administration
metric: LD50 at 240 h (mg/kg)
Output spec: scalar in mg/kg, unitless text.

Query: Quick check: LD50 at 240 h of Nc1nnc(-c2cccc(Cl)c2Cl)c(N)n1 [Compound A] ?
Response: 640
